Assay: Serum cannabinoid concentrations after 1 and 2 weeks of twice daily dosing (relative steady state)
Assay type: in vivo, dog (beagle)
Conditions: male, beagle, dog, in vivo, 2 mg/kg, week one, fed, 2 mg/kg twice daily, six hours after the morning dose
Assay Metric: concentration at 6 h

Q: Fill in: concentration at 6 h of CCCCCc1cc(O)c(C/C=C(\C)CCC=C(C)C)c(O)c1C(=O)O [CBGA, cannabigerolic acid] is ___
Ans: 564 ng/mL

* * *

Test: Serum cannabinoid concentrations after 1 and 2 weeks of twice daily dosing (relative steady state)
Format: in vivo, dog (beagle)
Details: male, beagle, dog, in vivo, 2 mg/kg, week two, fed, 2 mg/kg twice daily, six hours after the morning dose
Procedure: Six intact male beagles all 2 years of age weighing between 18.6 and 22.2 kilograms body weight were housed at the Baker Institute for Animal Health and all procedures were approved by the Cornell University Institutional Animal Care and Use Committee (Protocol 2019-0001). […] Then, twice daily dosing of treatment oil at both 7 am and 7 pm was performed on the following days for two weeks, and serum cannabinoids were measured. […]
Assay Metric: concentration at 6 h (ng/mL)
Quick note: give the figure in ng/mL, leave out the unit.

Q: Fill in: concentration at 6 h of CCCCCc1cc(O)c(C/C=C(\C)CCC=C(C)C)c(O)c1C(=O)O is ___
Ans: 223

* * *

Assay: Serum cannabinoid concentrations after 1 and 2 weeks of twice daily dosing (relative steady state)
Format: in vivo, dog (beagle)
Conditions: male, beagle, dog, in vivo, 2 mg/kg, week one, fasted, 2 mg/kg twice daily, six hours after the morning dose
Assay Metric: concentration at 6 h (ng/mL)
Quick note: give the figure in ng/mL, leave out the unit.

Q: Fill in: concentration at 6 h of CCCCCc1cc(O)c(C/C=C(\C)CCC=C(C)C)c(O)c1C(=O)O [CBGA, cannabigerolic acid] is ___
Ans: 437

* * *

Experiment: Serum cannabinoid concentrations after 1 and 2 weeks of twice daily dosing (relative steady state)
Assay type: in vivo, dog (beagle)
Conditions: male, beagle, dog, serum, oral, 2 mg/kg, week two, fed, 2 mg/kg twice daily, six hours after the morning dose
Assay Metric: concentration at 6 h (ng/mL)
Quick note: give the figure in ng/mL, leave out the unit.

Q: Fill in: concentration at 6 h of CCCCCc1cc(O)c(C/C=C(\C)CCC=C(C)C)c(O)c1 is ___
Ans: 9.6

* * *

Experiment: Serum cannabinoid concentrations after 1 and 2 weeks of twice daily dosing (relative steady state)
Type: in vivo, dog (beagle)
Conditions: male, beagle, dog, in vivo, 2 mg/kg, week two, fasted, 2 mg/kg twice daily, six hours after the morning dose
Assay Metric: concentration at 6 h
# answer = value followed by unit

Q: Fill in: concentration at 6 h of CCCCCc1cc(O)c(C/C=C(\C)CCC=C(C)C)c(O)c1C(=O)O is ___
Ans: 260 ng/mL

* * *

Assay: Serum cannabinoid concentrations after 1 and 2 weeks of twice daily dosing (relative steady state)
Type: in vivo, dog (beagle)
Conditions: male, beagle, dog, serum, oral, 2 mg/kg, week one, fed, 2 mg/kg twice daily, six hours after the morning dose
Assay Metric: concentration at 6 h (ng/mL)
Quick note: give the figure in ng/mL, leave out the unit.

Q: Fill in: concentration at 6 h of CCCCCc1cc(O)c(C/C=C(\C)CCC=C(C)C)c(O)c1 is ___
Ans: 12.7

* * *

Assay: Serum cannabinoid concentrations after 1 and 2 weeks of twice daily dosing (relative steady state)
Assay type: in vivo, dog (beagle)
Details: male, beagle, dog, serum, oral, 2 mg/kg, week one, fasted, 2 mg/kg twice daily, six hours after the morning dose
Assay Metric: concentration at 6 h (ng/mL)
Quick note: give the figure in ng/mL, leave out the unit.

Q: Fill in: concentration at 6 h of CCCCCc1cc(O)c(C/C=C(\C)CCC=C(C)C)c(O)c1 [CBG, cannabigerol] is ___
Ans: 5
